Molecular target: Glycylpeptide N-tetradecanoyltransferase 1 (Homo sapiens)
Sequence (P30419 whole entry): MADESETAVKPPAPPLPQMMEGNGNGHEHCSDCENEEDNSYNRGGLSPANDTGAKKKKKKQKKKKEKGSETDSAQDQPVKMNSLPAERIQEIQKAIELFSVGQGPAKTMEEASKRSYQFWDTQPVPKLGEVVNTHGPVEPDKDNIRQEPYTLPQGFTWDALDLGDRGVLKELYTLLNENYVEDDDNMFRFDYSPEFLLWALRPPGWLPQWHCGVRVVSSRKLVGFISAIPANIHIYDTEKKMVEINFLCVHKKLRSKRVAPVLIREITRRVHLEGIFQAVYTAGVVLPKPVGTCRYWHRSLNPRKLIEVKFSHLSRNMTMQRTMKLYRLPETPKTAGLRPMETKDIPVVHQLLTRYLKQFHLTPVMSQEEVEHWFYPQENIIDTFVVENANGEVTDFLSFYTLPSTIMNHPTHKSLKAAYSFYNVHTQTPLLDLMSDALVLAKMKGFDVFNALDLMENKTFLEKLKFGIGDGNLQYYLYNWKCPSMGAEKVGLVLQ
Some compounds, each annotated with its measured IC50.

CN(C)CCCN(C)c1nc(N(C)CCC#N)c2sccc2n1 | > 100 µM
CC(C)CN1CCC(N(C)c2nc(N(C)CCC#N)c3sccc3n2)CC1 | > 100 µM
CN1CCC(N(C)c2nc(N(C)CCC#N)c3sc(C(C)(C)C)cc3n2)CC1 | 0.55 µM

## Input Note down IC50 recorded for `Cc1ccccc1-c1ccc2nc(N(C)CCCN(C)C)nc(N(C)CCC#N)c2c1`
## Output > 100 µM

## Input Tell me IC50 reported for `CN(CCC#N)c1nc(N(C)C2CCNCC2)nc2ccsc12`
## Output 11 µM

## Input In one line, give reported IC50 of the entry `COc1ccc2nc(N(C)C3CCN(C)CC3)nc(N(C)CCC#N)c2c1` .
## Output > 100 µM

## Input Write down IC50 measured for item `CCN(C)c1nc(N(C)C2CCN(C)CC2)nc2ccsc12`
## Output 7.9 µM

###

Target: Glycylpeptide N-tetradecanoyltransferase 1 (Homo sapiens, UniProt P30419)
Sequence (P30419 whole entry): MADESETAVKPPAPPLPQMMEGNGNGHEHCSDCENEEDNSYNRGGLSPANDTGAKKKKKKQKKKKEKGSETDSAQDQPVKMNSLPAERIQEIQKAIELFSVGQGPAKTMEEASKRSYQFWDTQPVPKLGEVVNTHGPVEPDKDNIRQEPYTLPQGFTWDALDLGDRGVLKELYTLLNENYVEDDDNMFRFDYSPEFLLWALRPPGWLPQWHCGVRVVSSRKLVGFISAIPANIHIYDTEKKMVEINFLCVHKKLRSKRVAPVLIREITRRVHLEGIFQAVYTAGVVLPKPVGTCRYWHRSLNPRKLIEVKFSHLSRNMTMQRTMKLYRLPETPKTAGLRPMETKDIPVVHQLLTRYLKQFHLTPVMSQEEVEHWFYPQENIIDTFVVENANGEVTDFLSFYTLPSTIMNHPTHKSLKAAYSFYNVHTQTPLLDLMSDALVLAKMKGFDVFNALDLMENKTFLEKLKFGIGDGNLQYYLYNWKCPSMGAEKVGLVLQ
pIC50: −log10 of the molar value.
pIC50 reference

## Input Please look at this compound and report its pIC50: `CN(C)CCCN(C)c1nccc(N(C)CCC#N)n1`
## Output < 4.00

## Input Provide measured pIC50 value, entry: `CN(c1nc(N2CCC[C@H]2CC#N)c2sccc2n1)C1CCNCC1`
## Output 5.80

## Input Fill in pIC50 for record `CN(CCC#N)c1nc(N(C)C2CCNCC2)nc2ccccc12`
## Output < 4.00

## Input Provide only the value of recorded pIC50 for `CN(CCC#N)c1nc(N(C)[C@H]2C[C@H]3CC[C@@H](C2)N3C)nc2ccccc12`
## Output < 4.00

## Input Answer with the recorded pIC50 for the compound listed here: `CN(C)CCCN(C)c1nc(N(C)CCC#N)c2c(ncn2C)n1`
## Output < 4.00

## Input Specify pIC50 for CN1CCC(N(C)c2nc(N(C)CCC#N)c3cc(Br)ccc3n2)C1 (stereo unspecified) and stop.
## Output < 4.00

## Input Fill in reported pIC50 for this entry: `CN1CCC(N(C)c2nc(N(C)CCC#N)c3sccc3n2)CC1`
## Output 5.24

## Input Supply reported pIC50 belonging to this compound: `CN1CCC(N(C)c2nc(N3CCC[C@H]3CC#N)c3sccc3n2)CC1`
## Output < 4.00

## Input Please indicate pIC50 recorded for `CN(C)CCCN(C)c1nc(N(C)CCC#N)c2cccnc2n1`
## Output < 4.00

## Input Quickly give me recorded pIC50 for `COC[C@@H]1CCCN1c1nc(N(C)C2CCN(C)CC2)nc2ccsc12`
## Output < 4.00

## Input Supply recorded pIC50 for `CC(=O)N(C)CCN(C)c1nc(N(C)CCCN(C)C)nc2ccsc12` here.
## Output < 4.00

## Input Answer with the recorded pIC50 of CN(CCC#N)c1nc(N(C)C2CCNC2)nc2cc(C(C)(C)C)sc12 (stereo unspecified) only.
## Output < 4.00

###

Target: Glycylpeptide N-tetradecanoyltransferase 1 (Homo sapiens)
Sequence (P30419 whole entry): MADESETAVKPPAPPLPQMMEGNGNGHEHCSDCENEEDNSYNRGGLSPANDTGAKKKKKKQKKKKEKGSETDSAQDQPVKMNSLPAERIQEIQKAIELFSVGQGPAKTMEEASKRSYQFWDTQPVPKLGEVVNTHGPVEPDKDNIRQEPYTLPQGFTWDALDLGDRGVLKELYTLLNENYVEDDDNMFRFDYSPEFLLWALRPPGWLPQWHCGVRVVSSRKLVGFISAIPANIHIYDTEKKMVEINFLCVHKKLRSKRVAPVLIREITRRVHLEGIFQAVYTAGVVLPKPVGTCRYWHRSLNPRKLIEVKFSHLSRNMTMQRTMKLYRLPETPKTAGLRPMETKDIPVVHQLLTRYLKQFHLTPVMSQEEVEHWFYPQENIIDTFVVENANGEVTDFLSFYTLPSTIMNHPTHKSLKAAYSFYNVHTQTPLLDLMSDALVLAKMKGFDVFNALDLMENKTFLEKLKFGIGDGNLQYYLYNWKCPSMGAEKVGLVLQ
Assay type: ADME
Attribute measured: IC50 (nM)
Use nM as the unit, but write only the number.

Worked cases, answers included:
CCN(C)c1nc(N(C)C2CCNCC2)nc2ccc(S(=O)(=O)Nc3c(C)nn(C)c3C)cc12 | 1700
COC[C@@H]1CCCN1c1nc(N(C)C2CCNCC2)nc2ccsc12 | 5000

We next turn to a different compound, shown below.
## Input Fill: IC50 (Glycylpeptide N-tetradecanoyltransferase 1 (Homo sapiens)) for this compound `CCN(C)c1nc(N(C)C2CCN(C)CC2)nc2ccc(S(=O)(=O)Nc3c(C)nn(C)c3C)cc12`
## Output 2300
